Molecular target: T1, rhNav1.7α + β1-β2-β3 (rhesus monkey)
T1 construct: also called rhNav1.7-beta1-beta2-beta3; rhesus Nav1.7α
Assay: binding FACS, CHO FlpIn cells
Description: Binding of the ISVDs to cell-expressed Nav1.7α was detected via murine anti-Flag (Sigma, catalog #F1804). Briefly, cells were resuspended in FACS buffer (PBS, 10% FBS, NaN₃) and transferred to a 96-well V-bottom plate at 1×10^5 cells/well. Purified FLAG3-tagged ISVD was diluted in FACS buffer and added to the cells for 30 minutes at 4° C. […] Prior to the read-out, the samples were resuspended in 1 μg/mL propidium iodide (Sigma, catalog #P4170) to exclude dead cells. […]
pEC50: −log10 of the molar value.
quantity-measured: pEC50

| binder | pEC50 |
| --- | --- |
| F010302344 (VHH) VHH: EVQLVESGGGVVQPGGSLRLSCAASHRQFIRDVFTGWYRQAPGKQRELVARIYNEGNTQYADSAKGRFTISRDNAKKTVYLQMNSLRPEDTALYYCLFSGTISTGREYRSGDYWGQGTLVTVSS | 7.89 |
| F010301867 (VHH, A28Q vs F0103464B09 (Kabat)) VHH: EVQLVESGGGLVQPGGSLRLSCATTSRQFIRDVFTGWYRRVPGKERELVARIYNGGNTNYADFAKGRFSISRDNAKKMVTLRMSNLKPEDTGVYYCLFSGTINTGREYRSGDYWGQGTLVTVSS | 7.66 |

1 = F010301889 (VHH, S95A vs F0103464B09 (Kabat)) VHH: EVQLVESGGGLVQPGGSLRLSCATTSRAFIRDVFTGWYRRVPGKERELVARIYNGGNTNYADFAKGRFSISRDNAKKMVTLRMSNLKPEDTGVYYCLFAGTINTGREYRSGDYWGQGTLVTVSS
2 = F010302351 (VHH) VHH: EVQLVESGGGVVQPGGSLRLSCAASSRQFIRDVFTGWYRRAPGKQRELVARIYESGNTQYADSVKGRFTISRDNAKKTVYLQMNSLRPEDTALYYCLFSGTISTGREYRSGDYWGQGTLVTVSS
Field: entry with larger pEC50 (options 1 / 2 ). Write the label of whichever entry you select. 1
